Molecular target: UniProt P05227
Sequence (P05227 whole entry): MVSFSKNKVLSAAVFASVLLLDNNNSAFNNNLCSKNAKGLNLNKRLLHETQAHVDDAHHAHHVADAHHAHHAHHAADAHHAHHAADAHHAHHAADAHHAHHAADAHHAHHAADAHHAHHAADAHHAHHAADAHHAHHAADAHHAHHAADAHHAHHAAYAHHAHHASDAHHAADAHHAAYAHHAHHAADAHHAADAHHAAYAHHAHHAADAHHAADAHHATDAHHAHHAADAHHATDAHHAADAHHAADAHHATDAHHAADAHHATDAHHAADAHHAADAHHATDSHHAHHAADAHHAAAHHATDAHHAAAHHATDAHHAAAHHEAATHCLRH
Test: Inhibition of beta-hematin formation
property: IC50

These solved cases illustrate the format of a correct answer.
CC(=O)O[C@H]1CC[C@]2(C)[C@H]3CC=C4[C@@H]5[C@@H](C)[C@H](C)CC[C@]5(C(=O)NCCCN5CCN(CCCN)CC5)CC[C@@]4(C)[C@]3(C)CC[C@H]2C1(C)C | > 20 mM
CC(=O)O[C@H]1CC[C@]2(C)[C@H]3CC=C4[C@@H]5[C@@H](C)[C@H](C)CC[C@]5(C(=O)NCCCN5CCN(CCCN(Cc6ccc([N+](=O)[O-])cc6)Cc6ccc([N+](=O)[O-])cc6)CC5)CC[C@@]4(C)[C@]3(C)CC[C@H]2C1(C)C | > 20 mM
C[C@H]1[C@H](C)CC[C@]2(C(=O)O)CC[C@]3(C)C(=CC[C@@H]4[C@@]5(C)CC[C@H](O)C(C)(C)[C@@H]5CC[C@]43C)[C@H]12 | > 20 mM

// switching to the query compound
QUERY: Provide value of IC50 for this record tested with UniProt P05227: CC(=O)O[C@H]1CC[C@]2(C)[C@H]3CC=C4[C@@H]5[C@@H](C)[C@H](C)CC[C@]5(C(=O)NCCCN5CCN(CCCN(Cc6ccc(O)cc6)Cc6ccc(O)cc6)CC5)CC[C@@]4(C)[C@]3(C)CC[C@H]2C1(C)C
RESULT: 5.25 mM
